Measured values drawn from ChEMBL document CHEMBL4513216 for this set.

# procedureText: Toxicity liver stage against HepG2, at 10uM
# Format: cell-based
# Set-up: test concentration 10 uM, cell line HepG2-A16-CD81EGFP
# measurementConditions: human, HepG2-A16-CD81EGFP cells; read-out: INHIBITION
measuredParameter: cytotoxicity at 10 µM (%)
Provide only the numeric value, understood in %.

Examples from the recorded data:
CC1=N[C@@]2(CC[C@@H]3CN(Cc4ccc(C)cc4)C[C@@H]32)C(=O)N1CC1CC1: 1.7
CCOCC(=O)NCC(Cc1cccc(F)c1)N1CCCCC1=O (stereo unspecified): -1.89

# get_value(readout='cytotoxicity at 10 µM', item= c1ccc2nc(N3CCCC(Cn4cncn4)C3)cnc2c1 (stereo unspecified) ) 5.46
